Assay: Molar extinction coefficient of i-line (365 nm), UV-visible absorbance in acetonitrile
Assay type: physicochemical
Settings: 0.25 mmol/L in acetonitrile, cell length 1 cm
Protocol: The synthesized photoacid generator was diluted to 0.25 mmol/L with acetonitrile, and using an ultraviolet-visible spectrophotometer (UV-2550 available from SHIMADZU CORPORATION), the absorbance in a range of 200 nm to 500 nm was measured with a cell having an optical path length (a cell length) of 1 cm. The molar extinction coefficient of i-line (365 nm) (ε365) was calculated from the following equation. [In the equation, […] represents the absorbance at 365 nm.]
Measure: Molar extinction coefficient (L/mol/cm)

Compound: COc1cc2c3c(cccc3c1)C(=O)N(OS(=O)(=O)c1c(F)c(F)c(F)c(F)c1F)C2=O [Example A-28]
Unit String: L/mol/cm
Molar extinction coefficient: 7500

a. CC(C)(C)Cc1cc2c3c(cc(CC(C)(C)C)cc3c1)C(=O)N(OS(=O)(=O)CC13CCC(CC1=O)C3(C)C)C2=O (stereo not shown) [Example A-54]
b. CC1(C)C2CCC1(CS(=O)(=O)ON1C(=O)c3cccc4c(OCC(F)(F)C(F)F)ccc(c34)C1=O)C(=O)C2 (stereo not shown) [Example A-43]
c. O=C1c2cccc3c(C(F)(F)C(F)(F)C(F)(F)C(F)(F)F)ccc(c23)C(=O)N1OS(=O)(=O)c1c(F)c(F)c(F)c(F)c1F [Example A-36]
Exercise: # desc sort on Molar extinction coefficient across 3 compounds Kindly provide the labels arranged according to the requested ordering.
Key: b, a, c

====

Test: Molar extinction coefficient of i-line (365 nm), UV-visible absorbance in acetonitrile
Assay type: physicochemical
Settings: 0.25 mmol/L in acetonitrile, cell length 1 cm
Measure: Molar extinction coefficient (L/mol/cm)

Consider the following illustrative entries.
Compound: CCCC(=O)Oc1cc2c3c(cccc3c1)C(=O)N(OS(=O)(=O)C(F)(F)F)C2=O
Unit String: L/mol/cm
Number: 1600
--
Compound: O=C1c2cccc3c(Cl)ccc(c23)C(=O)N1OS(=O)(=O)c1c(F)c(F)c(F)c(F)c1F
Unit String: L/mol/cm
Number: 6000
--
Compound: O=C1c2cccc3c(Sc4ccccc4)ccc(c23)C(=O)N1OS(=O)(=O)C(F)(F)F
Unit String: L/mol/cm
Number: 20000

P. O=C1c2cccc3cccc(c23)C(=O)N1OS(=O)(=O)C(F)(F)F [A′-1, reference compound]
Q. O=C1c2cccc3c(OCC(F)(F)C(F)F)ccc(c23)C(=O)N1OS(=O)(=O)c1c(F)c(F)c(F)c(F)c1F
Exercise: Lower value for measured Molar extinction coefficient? Options: P , Q Please indicate the selected item by its label.
Key: P
(P: 330 L/mol/cm, Q: 12000 L/mol/cm)

a. COc1cc2c3c(cccc3c1)C(=O)N(OS(=O)(=O)C[C@]13CCC(CC1=O)C3(C)C)C2=O
b. O=C1c2cccc3c(Oc4cccc(C(F)(F)F)c4)ccc(c23)C(=O)N1OS(=O)(=O)c1c(F)c(F)c(F)c(F)c1F
c. CCCC(=O)Oc1cc2c3c(cccc3c1)C(=O)N(OS(=O)(=O)CC13CCC(CC1=O)C3(C)C)C2=O (stereo not drawn)
Exercise: Put these in order: smallest Molar extinction coefficient first, largest last. Kindly provide the labels arranged according to the requested ordering.
Key: c, a, b
(c: 1600 L/mol/cm, a: 7500 L/mol/cm, b: 16000 L/mol/cm)
